Each recorded value in this set is attributed to patent US20220088040A1.

# System: C2C12 myotubes
# ASSAY TEXT: Glutamate efflux from C2C12 myotubes (Amplex Red glutamic acid assay of culture media)
# Format: cell-based, murine
# SETTINGS: 5 μM atorvastatin, sulfasalazine 20 μM, cysteamine bitartrate 100 and 300 μM, vitamin E 100 μM, coenzyme Q10 50 μM, combination 100 μM vitamin E + 35 μM coenzyme Q10, N-acetylcysteine 5 mM (FIG. 4)
READOUT KIND: effect on glutamate efflux caused by atorvastatin

- COc1c(O)c(C)c(C/C=C(\C)CC/C=C(\C)CC/C=C(\C)CC/C=C(\C)CC/C=C(\C)CC/C=C(\C)CC/C=C(\C)CC/C=C(\C)CC/C=C(\C)CCC=C(C)C)c(O)c1OC: mitigated
- NCCS.O=C(O)C(O)C(O)C(=O)O (stereo not shown) [Cysteamine bitartrate]: mitigated
